test system: microorganisms in the activated sludge; test: Colony formation on NUTRIENT BROTH agar plates inoculated with activated sludge cell dispersion; type: cell-based; details: 0.1 w/w % cyclodextrin compound on plate; 0.1 ml cell dispersion; 30° C.; 2 days
measurementType: Colony/plate formed after incubation of 2 days (Colony/plate)
Kindly provide the numeric value in Colony/plate only, without the unit symbol.

Specify reported Colony/plate formed after incubation of 2 days for the compound shown: OC[C@H]1O[C@@H]2O[C@H]3[C@H](O)[C@@H](O)[C@@H](O[C@H]4[C@H](O)[C@@H](O)[C@@H](O[C@H]5[C@H](O)[C@@H](O)[C@@H](O[C@H]6[C@H](O)[C@@H](O)[C@@H](O[C@H]7[C@H](O)[C@@H](O)[C@@H](O[C@H]8[C@H](O)[C@@H](O)[C@@H](O[C@H]1[C@H](O)[C@H]2O)O[C@@H]8CO)O[C@@H]7CO)O[C@@H]6CO)O[C@@H]5CO)O[C@@H]4CO)O[C@@H]3CO [β-Cyclodextrin]
105

Specify reported Colony/plate formed after incubation of 2 days for the compound shown: COC[C@H]1O[C@@H]2O[C@H]3[C@H](O)[C@@H](OC)[C@@H](O[C@H]4[C@H](O)[C@@H](OC)[C@@H](O[C@H]5[C@H](O)[C@@H](OC)[C@@H](O[C@H]6[C@H](O)[C@@H](OC)[C@@H](O[C@H]7[C@H](O)[C@@H](OC)[C@@H](O[C@H]8[C@H](O)[C@@H](OC)[C@@H](O[C@H]1[C@H](O)[C@H]2OC)O[C@@H]8COC)O[C@@H]7COC)O[C@@H]6COC)O[C@@H]5COC)O[C@@H]4COC)O[C@@H]3COC [2,6-Di-O-methyl-β-cyclodextrin]
520

Specify reported Colony/plate formed after incubation of 2 days for the compound shown: OC[C@H]1O[C@@H]2O[C@H]3[C@H](O)[C@@H](O)[C@@H](O[C@H]4[C@H](O)[C@@H](O)[C@@H](O[C@H]5[C@H](O)[C@@H](O)[C@@H](O[C@H]6[C@H](O)[C@@H](O)[C@@H](O[C@H]7[C@H](O)[C@@H](O)[C@@H](O[C@H]8[C@H](O)[C@@H](O)[C@@H](O[C@H]9[C@H](O)[C@@H](O)[C@@H](O[C@H]1[C@H](O)[C@H]2O)O[C@@H]9CO)O[C@@H]8CO)O[C@@H]7CO)O[C@@H]6CO)O[C@@H]5CO)O[C@@H]4CO)O[C@@H]3CO [γ-Cyclodextrin]
210

Specify reported Colony/plate formed after incubation of 2 days for the compound shown: COC[C@H]1O[C@@H]2O[C@H]3[C@H](OC)[C@@H](OC)[C@@H](O[C@H]4[C@H](OC)[C@@H](OC)[C@@H](O[C@H]5[C@H](OC)[C@@H](OC)[C@@H](O[C@H]6[C@H](OC)[C@@H](OC)[C@@H](O[C@H]7[C@H](OC)[C@@H](OC)[C@@H](O[C@H]8[C@H](OC)[C@@H](OC)[C@@H](O[C@H]1[C@H](OC)[C@H]2OC)O[C@@H]8COC)O[C@@H]7COC)O[C@@H]6COC)O[C@@H]5COC)O[C@@H]4COC)O[C@@H]3COC [2,3,6-Tri-O-methyl-β-cyclodextrin]
220

Specify reported Colony/plate formed after incubation of 2 days for the compound shown: OC[C@H]1O[C@@H]2O[C@H]3[C@H](O)[C@@H](O)[C@@H](O[C@H]4[C@H](O)[C@@H](O)[C@@H](O[C@H]5[C@H](O)[C@@H](O)[C@@H](O[C@H]6[C@H](O)[C@@H](O)[C@@H](O[C@H]7[C@H](O)[C@@H](O)[C@@H](O[C@H]1[C@H](O)[C@H]2O)O[C@@H]7CO)O[C@@H]6CO)O[C@@H]5CO)O[C@@H]4CO)O[C@@H]3CO [α-Cyclodextrin]
120

// data source = patent US6391576B1
